Molecular target: T1, LAG3 Protein, Human, Recombinant (His Tag) (Sino Biological Catalog No. 16498-H08H) (human, UniProt P18627 23-450)
T1 construct: Bought protein; also called hLAG3-His; LAG3-His; not shown: His tag
T1 sequence (looked up): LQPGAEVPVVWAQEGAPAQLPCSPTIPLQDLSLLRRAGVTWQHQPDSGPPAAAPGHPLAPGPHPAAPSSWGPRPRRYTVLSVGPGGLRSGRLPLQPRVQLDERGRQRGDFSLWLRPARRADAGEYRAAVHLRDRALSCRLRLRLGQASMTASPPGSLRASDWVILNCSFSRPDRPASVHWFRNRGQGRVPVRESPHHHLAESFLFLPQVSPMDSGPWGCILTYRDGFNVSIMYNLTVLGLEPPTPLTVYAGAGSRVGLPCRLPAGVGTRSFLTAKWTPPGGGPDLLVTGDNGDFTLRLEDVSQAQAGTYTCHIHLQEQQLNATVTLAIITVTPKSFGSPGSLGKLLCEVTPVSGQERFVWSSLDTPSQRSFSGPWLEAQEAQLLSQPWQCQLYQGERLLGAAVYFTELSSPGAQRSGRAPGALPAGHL
Experiment: SPR binning on LAG3-His; competitor 37
Provide the reported RU of each item.
Numbers only, in RU.

• sdAb No. 21 (VHH, Fc of the tested form not described; also called sdAb 21; not shown: Fc part implied by anti-human Fc capture) VHH: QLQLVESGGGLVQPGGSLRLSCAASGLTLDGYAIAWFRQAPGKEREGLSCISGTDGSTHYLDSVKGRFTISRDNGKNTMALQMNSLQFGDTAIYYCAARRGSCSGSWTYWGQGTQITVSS = -17.3

Could you tell me RU for each of these binders? They are listed below.
1. sdAb No. 18 (VHH, Fc of the tested form not described; also called sdAb 18; not shown: Fc part implied by anti-human Fc capture) VHH: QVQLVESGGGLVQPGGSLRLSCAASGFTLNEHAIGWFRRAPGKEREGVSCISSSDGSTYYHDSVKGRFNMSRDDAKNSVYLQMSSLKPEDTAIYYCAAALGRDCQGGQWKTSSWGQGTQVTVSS
2. sdAb No. 27 (VHH, Fc of the tested form not described; also called sdAb 27; not shown: Fc part implied by anti-human Fc capture and anti-human IgG Fc detection) VHH: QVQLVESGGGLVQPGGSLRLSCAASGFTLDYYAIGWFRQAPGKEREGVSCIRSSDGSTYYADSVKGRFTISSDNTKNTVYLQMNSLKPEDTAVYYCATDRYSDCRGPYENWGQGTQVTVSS
3. sdAb No. 24 (VHH, Fc of the tested form not described; also called sdAb 24; not shown: Fc part implied by anti-human Fc capture) VHH: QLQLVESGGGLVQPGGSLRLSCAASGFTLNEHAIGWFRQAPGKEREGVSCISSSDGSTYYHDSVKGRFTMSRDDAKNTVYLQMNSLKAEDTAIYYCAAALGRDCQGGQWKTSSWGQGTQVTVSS
4. sdAb No. 20 (VHH, Fc of the tested form not described; also called sdAb 20; not shown: Fc part implied by anti-human Fc capture) VHH: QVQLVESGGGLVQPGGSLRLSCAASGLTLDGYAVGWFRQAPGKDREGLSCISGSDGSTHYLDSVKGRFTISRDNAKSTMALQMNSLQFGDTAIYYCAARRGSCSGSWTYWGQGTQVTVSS

-8.5
-9.1
-8.5
-19.3
